# Test system: MCF7
# assayComment: Growth inhibition of human MCF7 cells after 72 hrs by CellTiter-Blue assay
# Assay type: functional, cell-based
# conditions: MCF7, 72 h
Peptide text beside a SMILES is read from it. * marks the point of attachment. Cbz = O=C(OCc1ccccc1)*
resultType: IC50 (nM)
Give bare numbers, in nM.

Provide the reported IC50 (system: MCF7) for CC(C)C[C@@H](C=O)NC(=O)[C@H](CC(C)C)NC(=O)[C@H](CC(C)C)NC(=O)OCc1ccccc1 [MG-132] (Cbz-Leu-Leu-Leu-aldehyde)
130

Values from ChEMBL document CHEMBL3091376
